Data origin, for the record: PubChem BioAssay AID1851

assayed-system: Cytochrome P450 1A2 (Homo sapiens) (UniProt P05177)
Sequence (P05177 whole entry, looked up): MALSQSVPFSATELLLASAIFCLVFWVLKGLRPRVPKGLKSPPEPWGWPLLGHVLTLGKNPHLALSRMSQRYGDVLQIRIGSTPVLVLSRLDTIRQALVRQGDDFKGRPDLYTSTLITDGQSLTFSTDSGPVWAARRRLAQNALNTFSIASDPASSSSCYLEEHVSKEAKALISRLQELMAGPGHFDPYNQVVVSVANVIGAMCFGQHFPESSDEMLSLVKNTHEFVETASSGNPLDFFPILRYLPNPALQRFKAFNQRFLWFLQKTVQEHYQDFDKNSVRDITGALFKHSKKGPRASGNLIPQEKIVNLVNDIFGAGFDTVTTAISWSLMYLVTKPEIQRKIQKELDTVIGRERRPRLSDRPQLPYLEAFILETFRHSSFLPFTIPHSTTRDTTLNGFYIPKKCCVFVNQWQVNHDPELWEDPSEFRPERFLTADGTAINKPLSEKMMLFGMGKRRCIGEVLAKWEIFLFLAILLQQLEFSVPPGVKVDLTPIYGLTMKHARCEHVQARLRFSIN
test-method-notes: Cytochrome panel assay with activity outcomes
experimental-parameters: recombinant CYP, pro-luciferin dealkylation, luminescence, p450-cyp1a2; series mostly up to 57.1 µM
Hit rate of the full screen: of about 16,000 compounds, about 5,700 (36%) were called active. Another 24% or so got no clear call; they are omitted. Calls come from the whole dose curve; as a rule, active = well fitted curve in the direction sought with a large enough effect; inconclusive = small, poorly fitted or top-dose-only effect, or effect the other way; inactive = no such curve, though single readings can be large or run the other way. This is one part of the list.
Respond with a class label; see true (1) (active), false (0) (inactive)

Please review the following examples before continuing.
Cn1cccc1C(=O)N1CCC2(CCCN(Cc3ccccc3)C2)CC1; false (0)
CC1=C(C)/C(=N\OC(=O)/C=C/c2ccccc2)C=CC1=O; true (1)
Cn1cccc1C(=O)N1CCC2(CCCN(c3ccc(-c4ccccc4)cc3)C2)CC1; true (1)
O=C(Oc1ccccc1)N1CCC2(CCCN(c3ccc(-c4ccccc4)cc3)C2)CC1; false (0)

What did the test return for `COC(=O)N1CCC2(CCCN(c3ccc(-c4ccccc4)cc3)C2)CC1` ? true (1)

Thanks! And `C[C@H]1NC(=O)NC1=O` ? false (0)

* * *

assayed-system: Cytochrome P450 1A2 (Homo sapiens)
test-method-notes: Cytochrome panel assay with activity outcomes; for activity, negative = inhibition: % is set by controls: 0 for no effect and ±100 for the full control effect
experimental-parameters: recombinant CYP, pro-luciferin dealkylation, luminescence, p450-cyp1a2; series mostly up to 57.1 µM
Out of some 16,000 compounds screened, about 5,700 (36%) were called active. Roughly 24% stayed inconclusive and do not appear here. Some of the results follow.
Answer each item with its documented activity, negative = inhibition.

CCCNC(=O)OC[C@@H]1O[C@H](CCO/N=C(\C)CCN2CCc3nc(-c4ccccc4)c(-c4ccccc4)cc3C2)C=C[C@@H]1Oc1ccc(OC)cc1; -4.45% [at 11.4 µM] (inactive)
O=C(O)CSSCC(=O)O; -2.44% [at 11.4 µM] (inactive)

Report activity, negative = inhibition for each item below.
1. CO[C@H]1COC(=O)[C@@H](Cc2ccccc2)NC(=O)[C@@H](C)COC(=O)C/C=C\[C@@H]1C
2. COc1cc(C2SCCCCCCCCCCSC(c3ccc(O)c(OC)c3)SCCCCCCCCCCS2)ccc1O (centres undefined)
3. CO[C@H]1COC(=O)C/C=C\[C@@H](C)[C@H](OC)COC(=O)CCC[C@@H]1C

1. -3.6% [at 11.4 µM] (inactive)
2. -6.91% [at 2.29 µM] (inactive)
3. -5.95% [at 11.4 µM] (inactive)

Would you mind giving activity, negative = inhibition for every compound in the list below?
1. CN[C@@H](c1ccncc1)[C@@H](NC)c1ccncc1
2. CCOc1ccccc1Nc1ccc(N)cc1S(=O)(=O)O
3. NS(=O)(=O)c1ccc(N=Nc2nc3[nH]c(=O)[nH]c(=O)c3[nH]2)cc1
4. C[N+](C)(C)CCCSc1nc2ccccc2[nH]1
5. Nc1ncnc2c1ncn2CCCCC(=O)O

["-13.3% [at 11.4 µM] (inactive)", "-12.6% [at 2.29 µM] (inactive)", "-13.4% [at 11.4 µM] (inactive)", "-15.1% [at 11.4 µM] (inactive)", "-3.15% [at 11.4 µM] (inactive)"]

Look at each compound and report its activity, negative = inhibition.
1. CCc1cc2c(nc1CC)CCN(CC/C(C)=N/O[C@@H](C)c1cc(-c3c(C)cc(C)cc3C)no1)C2
2. Cc1ccc(C2=C(Cl)C(=O)C(c3ccc(C)cc3)=C(Cl)C2=O)cc1

1. -8.6% [at 11.4 µM] (inactive)
2. -16.9% [at 2.29 µM] (inactive)

Lab note: each compound below needs its activity, negative = inhibition filled in.
1. CCc1cc2c(nc1CC)CCN(CC/C(C)=N/O[C@@H](C)CN1CCCc3nc(C)c(C)cc31)C2
2. O=C(O)/C=C(/C(=O)O)[C@]12CCN3CC4=CCO[C@@H]5CC(=O)N[C@@H]1[C@H]5[C@H]4C[C@H]32
3. CCCC(c1cc(C(C)(C)C)c(O)cc1C)c1cc(C(C)(C)C)c(O)cc1C
4. Cc1ccc(N[C@H](c2ccccc2)c2ccc3cccnc3c2O)cc1
5. O=C1[C@H]2O[C@@H]2[C@@H](O)[C@H]2[C@H]1CCn1c(=O)n(Cc3cc4c(cc3Cl)OCO4)c(=O)n12
6. Cc1ccc([C@@]2(C)CC/C(=N/N=C3\CC[C@](C)(c4ccc(C)c(C)c4)c4cc(C)c(C)cc43)c3cc(C)c(C)cc32)cc1C
7. COc1ccc(-c2ccc3c(n2)CCCN3C[C@H](O)CN2CCCc3nc(C)c(C)cc32)cc1

5.54% [at 11.4 µM] (inactive)
-15% [at 2.29 µM] (inactive)
-12.3% [at 2.29 µM] (inactive)
-24.5% [at 2.29 µM] (inactive)
-4.53% [at 11.4 µM] (inactive)
-12.4% [at 11.4 µM] (inactive)
-2.83% [at 11.4 µM] (inactive)
